- targetOrSystem: GABARAPL2 (Homo sapiens, UniProt P60520)
- Sequence (P60520 whole entry): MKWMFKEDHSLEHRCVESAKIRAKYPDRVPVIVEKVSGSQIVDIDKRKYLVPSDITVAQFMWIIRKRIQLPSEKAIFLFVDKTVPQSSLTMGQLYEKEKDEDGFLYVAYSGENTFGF
- cond: residue P52; estimated; GABARAPL2:ligand molar ratio 1:2
experimentalReadout: CSP (ppm)

In [3]: df
Out[3]:
                                   compound  experimentalreadout  measvalue
0  O=C1Nc2ccc(I)cc2C1=Cc1cc(Br)c(O)c(Br)c1 [compound 4]                  CSP      0.070
1  O=c1cc(-c2ccccc2)c2c(O)cc(O)cc2o1 [compound 2]                  CSP      0.005
2  Cc1ccc(C(=O)N(CCCN)[C@@H](c2nc3cc(Cl)ccc3c(=O)n2Cc2ccccc2)C(C)C)cc1 [compound 3]                  CSP      0.002
3  O=C1Nc2ccc(Br)cc2C1=Cc1cc(O)c(O)c(Br)c1 [compound 1]                  CSP      0.020

----------
- targetOrSystem: GABARAPL2 (Homo sapiens)
- cond: residue S18; GABARAPL2:ligand molar ratio 1:2
experimentalReadout: CSP

                                   compound  experimentalreadout    measvalue
0  Cc1ccc(C(=O)N(CCCN)[C@@H](c2nc3cc(Cl)ccc3c(=O)n2Cc2ccccc2)C(C)C)cc1                  CSP  0.00146 ppm
1   O=C1Nc2ccc(I)cc2C1=Cc1cc(Br)c(O)c(Br)c1                  CSP    0.021 ppm
2   O=C1Nc2ccc(Br)cc2C1=Cc1cc(O)c(O)c(Br)c1                  CSP  0.00255 ppm
3         O=c1cc(-c2ccccc2)c2c(O)cc(O)cc2o1                  CSP    0.002 ppm

----------
- targetOrSystem: LC3A (Homo sapiens, UniProt Q9H492)
- assayNotes: FP assay with Cy5-labelled p62 LIR tracer (protein titration and tracer displacement)
- Format: binding
- cond: LC3A tracer displacement, normalized on p62-LIR positive control
experimentalReadout: % tracer bound @LC3A (%)

>>> df
                                    compound   experimentalreadout  measvalue
 0  CCCCCCC(Sc1nc2ccc(NC(=O)c3ccc(-c4ccccc4)cc3)cc2s1)C(=O)O (stereo not drawn)  % tracer bound @LC3A         78
 1  COc1ccc(CN(Cc2cccc(C#N)c2)S(=O)(=O)c2ccc(C(=O)O)cc2)cc1  % tracer bound @LC3A         83
 2  CCCCCCC(Sc1nc(Cl)cc(Nc2nc(-c3ccc(Cl)c(Cl)c3)cs2)n1)C(=O)O (stereo not drawn)  % tracer bound @LC3A         84
 3  CCCCCCC(Sc1nc(Cl)cc(Nc2nc(-c3ccc([N+](=O)[O-])cc3)cs2)n1)C(=O)O (stereo not drawn)  % tracer bound @LC3A         61
 4  CCCCCCC(Sc1nc(Cl)cc(Nc2nc(-c3ccc(Cl)cc3)cs2)n1)C(=O)O (stereo not drawn)  % tracer bound @LC3A         81
 5  CCCCCCC(Sc1nc(Cl)cc(Nc2nc(-c3ccc4ccccc4c3)cs2)n1)C(=O)O (stereo not drawn)  % tracer bound @LC3A         79
 6  CCCCCCC(Sc1nc2ccc(NCc3ccccc3)cc2s1)C(=O)O (stereo not drawn)  % tracer bound @LC3A         78
 7  CCCCCCC(Sc1nc(Cl)cc(Nc2nc(-c3ccc(F)c(F)c3)cs2)n1)C(=O)O (stereo not drawn)  % tracer bound @LC3A         76
 8  O=C(O)c1ccc(S(=O)(=O)N(Cc2ccc(Oc3ccccc3)cc2)CC2CCCCC2)cc1  % tracer bound @LC3A         82
 9  CCCCCCC(Sc1nc(Cl)cc(Nc2nc(-c3ccc(-c4ccccc4)cc3)cs2)n1)C(=O)O (stereo not drawn)  % tracer bound @LC3A         82
10  CCCCCCC(Sc1nc2ccc(NC(=O)c3ccc(C(C)(C)C)cc3)cc2s1)C(=O)O (stereo not drawn)  % tracer bound @LC3A         85
11  CCCCCCC(Sc1nc2ccc(NCc3ccc(-c4ccccc4)cc3)cc2s1)C(=O)O (stereo not drawn)  % tracer bound @LC3A         72
12  CCCCCCC(Sc1nc2ccc(NCc3ccc(C(C)(C)C)cc3)cc2s1)C(=O)O (stereo not drawn)  % tracer bound @LC3A         82
13  CCCCCCC(Sc1nc(Cl)cc(Nc2nc(C34CC5CC(CC(C5)C3)C4)cs2)n1)C(=O)O (stereo not drawn)  % tracer bound @LC3A         84
14  CCCCCCC(Sc1nc2ccc(NCc3ccc(Cl)c(Cl)c3)cc2s1)C(=O)O (stereo not drawn)  % tracer bound @LC3A         79
15  CCCCCCC(Sc1nc(Cl)cc(Nc2nc(-c3ccc(Br)cc3)cs2)n1)C(=O)O (stereo not drawn)  % tracer bound @LC3A         79
16  CCCCC(Sc1nc2ccc(NC(=O)c3ccc(C(C)(C)C)cc3)cc2s1)C(=O)O (stereo not drawn)  % tracer bound @LC3A         89
17  CCCCCCC(Sc1nc(Cl)cc(Nc2nc(-c3ccc(Br)cc3)c(C)s2)n1)C(=O)O (stereo not drawn)  % tracer bound @LC3A         94
